Biological target: T1, human hepcidin (mature, 25 amino acids) (human, mono-biotinylated in the ELISAs and on the KinExA beads (site not stated); unlabelled in solution and on the BIAcore chip)
T1 construct: the form is named in each assay field; also called rhuHepc; rhHepc
T1 peptide: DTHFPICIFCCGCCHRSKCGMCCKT
Assay: ELISA, mono-biotinylated human hepcidin on Neutravidin plate, pH 5.5
reported-endpoint: EC50 (ng/mL)
Expressed in ng/mL, but write only the number.

Solved cases (5 shown):
Value lookup for EC50; key = 15E1 L27H (antibody, V domains shown, Histidine mutant of 15E1, transiently expressed in 293-6E cells; constant regions as in wild-type 15E1; also called L27H (light chain)) VH: QVQLVESGGGVVQPGRSLRLSCAASGFTFSSYGMHWVRQAPGKGLEWVAVIWYAESNKYYADSVKGRFTISRDNSKNTLYLQMNSLRAEDTAVYYCARAQEGIAPDAFDIWGQGTMVTVSS VL: SYELTQPPSVSVSPGQTATITCSGDKHGERYACWYQQRPGQSPVLVIYQDSKRPSGIPERFSGSNSGNTATLTISGTQAMDEADYFCQAWYSSTNVLFGGGTKLTVL
8

So what's the measured EC50 for this one? 15E1 A107H (antibody, V domains shown, Histidine mutant of 15E1, transiently expressed in 293-6E cells; constant regions as in wild-type 15E1; also called A107H (heavy chain)) VH: QVQLVESGGGVVQPGRSLRLSCAASGFTFSSYGMHWVRQAPGKGLEWVAVIWYAESNKYYADSVKGRFTISRDNSKNTLYLQMNSLRAEDTAVYYCARAQEGIAPDHFDIWGQGTMVTVSS VL: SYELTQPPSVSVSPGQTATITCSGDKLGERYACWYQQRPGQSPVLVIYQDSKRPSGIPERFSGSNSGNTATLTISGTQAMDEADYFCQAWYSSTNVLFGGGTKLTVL
3.7

Looking for the measured EC50 of 15E1 A89H (antibody, V domains shown, Histidine mutant of 15E1, transiently expressed in 293-6E cells; constant regions as in wild-type 15E1; also called A89H (light chain)) VH: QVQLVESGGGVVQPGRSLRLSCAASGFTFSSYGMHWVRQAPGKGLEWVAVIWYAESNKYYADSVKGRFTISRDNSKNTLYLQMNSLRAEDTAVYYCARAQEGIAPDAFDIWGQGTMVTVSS VL: SYELTQPPSVSVSPGQTATITCSGDKLGERYACWYQQRPGQSPVLVIYQDSKRPSGIPERFSGSNSGNTATLTISGTQAMDEADYFCQHWYSSTNVLFGGGTKLTVL , can you help?
12

Fill in: EC50 of 15E1 W52H (antibody, V domains shown, Histidine mutant of 15E1, transiently expressed in 293-6E cells; constant regions as in wild-type 15E1; also called W52H (heavy chain)) VH: QVQLVESGGGVVQPGRSLRLSCAASGFTFSSYGMHWVRQAPGKGLEWVAVIHYAESNKYYADSVKGRFTISRDNSKNTLYLQMNSLRAEDTAVYYCARAQEGIAPDAFDIWGQGTMVTVSS VL: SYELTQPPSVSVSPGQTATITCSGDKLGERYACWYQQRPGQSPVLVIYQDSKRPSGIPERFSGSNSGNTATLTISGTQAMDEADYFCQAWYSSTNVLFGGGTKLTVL is ___
17

EC50 lookup needed for antibody 15E1 (wild type) (antibody, V domains shown, Human antibody) VH: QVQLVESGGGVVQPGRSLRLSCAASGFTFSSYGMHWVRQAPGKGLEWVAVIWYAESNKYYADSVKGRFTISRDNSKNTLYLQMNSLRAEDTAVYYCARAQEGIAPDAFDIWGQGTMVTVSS VL: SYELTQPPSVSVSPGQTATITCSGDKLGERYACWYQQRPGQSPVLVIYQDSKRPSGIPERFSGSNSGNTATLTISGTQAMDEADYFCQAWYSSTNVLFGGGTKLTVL , thanks.
2.3

Continuing:
Look at this binder and give its reported EC50. 15E1 N57H (antibody, V domains shown, Histidine mutant of 15E1, transiently expressed in 293-6E cells; constant regions as in wild-type 15E1; also called N57H (heavy chain)) VH: QVQLVESGGGVVQPGRSLRLSCAASGFTFSSYGMHWVRQAPGKGLEWVAVIWYAESHKYYADSVKGRFTISRDNSKNTLYLQMNSLRAEDTAVYYCARAQEGIAPDAFDIWGQGTMVTVSS VL: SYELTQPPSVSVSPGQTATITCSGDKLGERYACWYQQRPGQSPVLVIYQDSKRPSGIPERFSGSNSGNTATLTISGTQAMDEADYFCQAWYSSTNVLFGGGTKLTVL
3.2
